Biological target: T1, CEACAM5 (CD66e) on tumour cells (human, UniProt P06731 35-685, glycosylated (natural, as on tumour cells))
T1 construct: whole, on cells; One molecule for CEACAM5 on all three cell lines; the cell line is named under assay; also called natural CEACAM5 antigen; Lovo cells
T1 sequence (looked up): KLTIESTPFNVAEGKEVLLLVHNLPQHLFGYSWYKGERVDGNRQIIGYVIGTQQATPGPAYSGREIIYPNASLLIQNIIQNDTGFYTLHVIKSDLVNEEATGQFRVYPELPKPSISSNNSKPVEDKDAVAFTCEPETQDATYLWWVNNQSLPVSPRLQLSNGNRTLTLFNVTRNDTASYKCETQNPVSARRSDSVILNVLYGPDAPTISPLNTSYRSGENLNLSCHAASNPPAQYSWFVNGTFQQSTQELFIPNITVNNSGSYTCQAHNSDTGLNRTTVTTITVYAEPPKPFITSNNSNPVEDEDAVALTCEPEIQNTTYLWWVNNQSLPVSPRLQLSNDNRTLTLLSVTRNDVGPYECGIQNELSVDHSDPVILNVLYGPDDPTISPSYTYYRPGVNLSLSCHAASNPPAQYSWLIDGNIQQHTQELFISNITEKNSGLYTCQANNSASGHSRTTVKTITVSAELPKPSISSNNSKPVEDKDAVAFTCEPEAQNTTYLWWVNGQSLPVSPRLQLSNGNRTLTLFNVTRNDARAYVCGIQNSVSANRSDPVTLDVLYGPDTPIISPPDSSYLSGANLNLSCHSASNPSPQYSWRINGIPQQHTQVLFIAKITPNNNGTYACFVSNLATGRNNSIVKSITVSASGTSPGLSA
Assay: competition by flow cytometry on KATO3 cells; competitor mouse M19 (m2F4) at 1 µg/ml, detected with anti-mouse IgG Fc-APC
MEASURED QUANTITY: Emax Inhibition, % (%)
Kindly provide the numeric value in % only, without the unit symbol.

Ask: Query: Emax Inhibition, %; subject: Humanized antibody hAb-003 (antibody, V domains shown, also called hM19-1) VH: EVQLVESGGGLVQPGGSLRLSCAASGFTFTDYFMNWVRQAPGKALEWVGQMRNKVNGDTTEYAESVEGRFTISRDDSKNSLYLQMNSLKTEDTAVYYCARDKGIAYYFDYWGQGTLVTVSS VL: DIQMTQSPSSLSASVGDRVTITCRASSSVSYIHWYQQKPGKSPKPLIYGTSNLASGVPSRFSGSGSGTDFTLTISSLQPEDAATYYCQQWSSNLSTFGQGTKLEIK
Reply: 51.3
